Where do the numbers come from? From patent US20120258108A1.

Listed here are binders together with their documented kon.
target: Recombinant Human DLL4 (human, UniProt Q9NR61 27-524)
Sequence (Q9NR61 27-524 limits assumed): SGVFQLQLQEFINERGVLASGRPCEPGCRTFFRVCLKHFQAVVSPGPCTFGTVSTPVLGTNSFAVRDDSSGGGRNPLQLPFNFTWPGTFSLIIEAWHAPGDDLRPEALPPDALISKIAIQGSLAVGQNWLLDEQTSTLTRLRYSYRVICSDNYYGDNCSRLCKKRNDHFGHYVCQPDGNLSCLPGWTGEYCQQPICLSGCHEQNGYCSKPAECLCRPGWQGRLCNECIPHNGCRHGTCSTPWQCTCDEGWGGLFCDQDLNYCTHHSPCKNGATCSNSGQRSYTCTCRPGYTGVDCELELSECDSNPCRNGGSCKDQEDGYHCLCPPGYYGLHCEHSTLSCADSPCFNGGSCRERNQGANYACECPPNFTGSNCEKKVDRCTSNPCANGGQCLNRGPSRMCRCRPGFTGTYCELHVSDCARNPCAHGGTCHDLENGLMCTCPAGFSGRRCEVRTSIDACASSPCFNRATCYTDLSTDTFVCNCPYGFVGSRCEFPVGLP
protocol_description: SPR (BIACORE)
The answer is to be given in M⁻¹ s⁻¹; state only the numeric part.

AB316 (antibody, human IgG1, kappa, V domains shown, CDR-grafted parent antibody) VH: EVQLVESGGGLVQPANSLKLSCAVSGGSISSSSYYWGWIRQSPKKGLEWIGDIYYTGSTYYNPSLKSRVTISVDTAKNTFYLQMDSLRSEDTATYYCARQALAMGGGSDKWGQGVLVTVSS VL: DYRLTQSPASLSASLGETVNIECSGQRLGDKYASWYQQKPGKSPQLVIYEDSKRPSGIPSRFSGSNSGDQASLKINSLQSEDVATYYCQAWDRDTGVFGGGTKLELKR : 89000
AB334 (antibody, human IgG1, kappa, V domains shown, CDR-grafted parent antibody) VH: QVQLQQSGAELMKPGASVKLSCKATGFTFSNFPMAWVKQRPGHGLEWVATISSSDGTTYYRDSVKGKFTITRDNSSNTLYIQLISLTTEDSAIYYCARGYYNSPFAYWGQGTLLTVSA VL: DILMTQSPAILSVSPGERVSFSCRASEDIYSNLAWYQQRTNGAPRLLIYDTNNLADGVPSRFSGGGSGTDFTLSINSVESEDIADYYCQQYNNYPPTFGAGTKLELKR : 390000

Q: Indicate its recorded kon; the binder in question is AB290 (antibody, human IgG1, kappa, V domains shown, CDR-grafted parent antibody) VH: EVTLRESGPALVKPTQTLTLTCTASGFTFSNFPMAWVRQPPGKGLEWVATISSSDGTTYYRDSVKGRFTISRDNSKNQLVLTMTNMDPVDTATYYCARGYYNSPFAYWGQGTTVTVSS VL: DIVMTQSPDSLAVSLGERATINCRASEDIYSNLAWYQQKPGQAPKLLIYDTNNLADGVPDRFSGSGSGTDFTLTISSLQAEDVAVYYCQQYNNYPPTFGGGTKVEIKR
Result: 200000
